FYI, the data here is from patent US20260242478A1.

Entries and their Anti-PSMA Fab (SEQ ID NOs: 19, 20) signal values follow.
target: T1, Anti-PSMA Fab (SEQ ID NOs: 19, 20); test: phage binding ELISA; biotinylated PSMA Fab on neutravidin plate, bound phage detected with anti-M13-HRP
T1 construct: Biotinylated and captured on neutravidin coated plates in the phage ELISA; also called 006 PSMA Fab
endpoint: Anti-PSMA Fab (SEQ ID NOs: 19, 20) signal

ASPMCIPEWMCSGV [Phage-2037]    1.8
DLPWCIPAWMCMGL [Phage-2039]    1.8
IVKWCTPEWMCVGF [Phage-2034]    1.8
ELQRCTPWWMCFDV [Phage-2027]    1.81
